Biological target: T1, TEV-cleaved wild-type recombinant human galectin-10 (soluble, in Fab complexes, or as recombinant galectin-10 … (human, UniProt Q05315 1-142)); also: time not given here
T1 sequence: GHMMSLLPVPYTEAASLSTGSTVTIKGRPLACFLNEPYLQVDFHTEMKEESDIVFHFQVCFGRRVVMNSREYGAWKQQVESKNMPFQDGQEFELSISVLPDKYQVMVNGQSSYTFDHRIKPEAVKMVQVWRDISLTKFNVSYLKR
Experiment: cell-based or functional assay
propertyMeasured: 100% Solubilization of CLC (Conc uM) (µM)
Answers are plain numbers, in µM.

Study these solved cases before continuing.
binder	testValue
4B10 scFv-human Fc (Fc fusion, about 100 kDa on SDS-PAGE; also called 4B10 ScFv-hFc; not shown: CH2-CH3 constant domains of human IgG1 (vector pUPEX50)) scFv: QLQLVESGGGLVQPGGSLRLSCAASGFTFSNYWMYWVRQAPGKGLEWVSAIDVGGGTTDYAGSVKGRFTISRDNTKSTVYLQMNTLKPEDTALYYCLRGGSYYGGMDYWGKGTLVTVSSGGGGSGGGGSGGGGSQSALTQPSAVSVSLGQTARITCQGAKLGRYYGIWYQQKPGQAPVQVIYGDSNRPSGIPERFSGSSSGGTATLTISGAQAEDEADYYCQSYESSTSPVFGGGTHLTVL	6.14
2E11 scFv-human Fc (Fc fusion, about 100 kDa on SDS-PAGE; also called 2E11 ScFv-hFc; not shown: CH2-CH3 constant domains of human IgG1 (vector pUPEX50)) scFv: EVQLVESGGGLVQPGGSLRLSCAASGFTFSSYAMSWVRQAPGKGLEWVSPINSGSDSASYVDSVKGRFTISRDNAKNTLYLQMNSLKPEDTAVYYCAKARTSVVAGGMDYWGKGTLVTVSSGGGGSGGGGSGGGGSQSALTQPSAVSVSLGQTARITCQGGKFGSYYVSWYQQKPGQAPVMVIYKDNERPSGIPERFSGSSSGSTSTLTISGAQAEDEGTYYCQSGSSSDNIVFGGGTELTVF	4.36
1C09 mouse IgG1 (antibody, V domains shown, VH on mouse IgG1 heavy chain constant domains (CH1-CH2-CH3), VL on mouse lambda light chain constant domain; also called 1C09 mIgG1) VH: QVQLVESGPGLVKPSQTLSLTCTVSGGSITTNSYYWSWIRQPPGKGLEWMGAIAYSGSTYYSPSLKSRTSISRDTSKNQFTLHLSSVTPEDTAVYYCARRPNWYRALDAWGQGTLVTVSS VL: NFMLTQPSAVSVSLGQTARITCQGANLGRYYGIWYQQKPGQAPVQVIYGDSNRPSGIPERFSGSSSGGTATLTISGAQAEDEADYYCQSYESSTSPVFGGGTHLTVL	10.5
4G05 scFv-human Fc (Fc fusion, about 100 kDa on SDS-PAGE; also called 4G05 ScFv-hFc; not shown: CH2-CH3 constant domains of human IgG1 (vector pUPEX50)) scFv: QLQVVESGGGLVQTGGSLTLSCTTSGFTFSRYWMIWVRQAPGKGLEWVSSIYNDGGNTYYADSVKGRFTISRDNSENTLYLQMNSLKSEDTAVYYCAKLKAAYYGMDYWGKGTLVTVSSGGGGSGGGGSGGGGSSSALTQPSAVSVSLGQTARITCQGANLGRYYGIWYQQKPGQAPVQVIYGDSNRPSGIPERFSGSSSGGTATLTISGAQAEDEADYYCQSYESSTSPVFGGGTHLTVL	4.36
2C07 scFv-human Fc (Fc fusion, about 100 kDa on SDS-PAGE; also called 2C07 ScFv-hFc; not shown: CH2-CH3 constant domains of human IgG1 (vector pUPEX50)) scFv: ELQLVESGGGLVQPGGSLRLSCAASGFTFSSYAMSWVRQAPGKGLEWVSNINSGGGSTGYADSVKGRFTISRDNAKNTLYLQMNSLKPEDMAVYYCAKYLRTYYPNAAFGMDYWGKGTLVTVSSGGGGSGGGGSGGGGSQAVLTQPSAVSVSLGQTARITCQGGNFGRYYASWYQQKPGQAPVLVIYRDSERPSGIPERFSGSSSGDTATLTISGAQAEDEADYYCQSGRSSDNAVFGGGTHLTGL	6.86
1D11 mouse IgG1 (antibody, V domains shown, VH on mouse IgG1 heavy chain constant domains (CH1-CH2-CH3), VL on mouse lambda light chain constant domain; also called 1D011; 1D11 mIgG1) VH: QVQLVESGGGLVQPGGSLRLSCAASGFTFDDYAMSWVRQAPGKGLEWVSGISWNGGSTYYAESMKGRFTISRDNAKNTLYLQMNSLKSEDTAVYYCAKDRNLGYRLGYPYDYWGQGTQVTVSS VL: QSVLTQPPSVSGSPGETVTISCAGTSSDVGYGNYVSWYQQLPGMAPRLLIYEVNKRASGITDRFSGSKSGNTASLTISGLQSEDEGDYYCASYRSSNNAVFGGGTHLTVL	7.86
4H10 scFv-human Fc (Fc fusion, about 100 kDa on SDS-PAGE; also called 4H10 ScFv-hFc; not shown: CH2-CH3 constant domains of human IgG1 (vector pUPEX50)) scFv: QVQLVESGGGLVQPGGSLRLSCAASGFTFDDYAMSWVRQAPGKGLEWVSAISWNGGSTYYAESMKGRFTISRDNAKNTLYLQMNSLKSEDAAVYYCAKDLSASGSYYHTFGSWGQGTQVTVSSGGGGSGGGGSGGGGSQAGLTQPPSVAGTLGKTVTISCAGTSSDVGYGDYVSWYQHIPGTAPKLLIYKVKTRASGIPDRFSGSKSGNTASLTISGLQSGDESDYYCASYKNGGTAVFGGGTHLTVL	6
6E10 mouse IgG1 (antibody, V domains shown, also called 6E010; 6E10 mIgG1) VH: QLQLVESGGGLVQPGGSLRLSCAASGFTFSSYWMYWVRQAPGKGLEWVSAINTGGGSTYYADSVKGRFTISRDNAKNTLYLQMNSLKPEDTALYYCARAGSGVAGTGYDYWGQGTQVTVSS VL: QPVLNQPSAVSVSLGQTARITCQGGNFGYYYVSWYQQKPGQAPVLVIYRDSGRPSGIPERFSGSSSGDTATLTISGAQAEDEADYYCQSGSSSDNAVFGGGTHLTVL	10.5

# context switch: different binder, same 100% Solubilization of CLC (Conc uM)
Req: So what does the record say about 100% Solubilization of CLC (Conc uM) for 2B11 scFv-human Fc (Fc fusion, about 100 kDa on SDS-PAGE; also called 2B11 ScFv-hFc; not shown: CH2-CH3 constant domains of human IgG1 (vector pUPEX50)) scFv: QVQLQESGPGLVKPSQTLSLTCTVSGGSITTNYYYWSWIRQPPGKGLEWMGAIAYSGSTYYSPSLKSRTSISRDTSKNQFTLQLSSVTPEDTAVYYCARAPYGISREYDYWGQGTQVTVSSGGGGSGGGGSGGGGSHSAVTQPSAVSVSLGQTARITCQGGKFGRYYASWYQQKPGQAPVLVIYKDSERPSGIPERFSGSSSGDTATLSISGAQAEDEADYFCQSGRSSDNAVFGGGTHLTVL ?
Resp: 5.04
